Items are presented alongside their recorded pIC50.
system: AGS; assay: cells; type: functional, cell-based, Homo sapiens; details: Homo sapiens, AGS;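 note: growth inhibition of AGS cells, determined with a cell viability assay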
Description: SANGER: Inhibition of human AGS cell growth in a cell viability assay.
Give only the number. pIC50 is defined as minus log10 of concentration in molar units.

Reference set, count: 4
COMPOUND	pIC50
COc1cc([C@@H]2c3cc4c(cc3[C@@H](O[C@@H]3O[C@@H]5CO[C@@H](C)O[C@H]5[C@H](O)[C@H]3O)[C@H]3COC(=O)[C@H]23)OCO4)cc(OC)c1O [ETOPOSIDE]	6.50
CN(c1ncccc1CNc1nc(Nc2ccc3c(c2)CC(=O)N3)ncc1C(F)(F)F)S(C)(=O)=O	5.82
COc1ccc(C2=N[C@@H](c3ccc(Cl)cc3)[C@@H](c3ccc(Cl)cc3)N2C(=O)N2CCNC(=O)C2)c(OC(C)C)c1	5.21
Cn1cncc1[C@@](N)(c1ccc(Cl)cc1)c1ccc2c(c1)c(-c1cccc(Cl)c1)cc(=O)n2C	5.34

Now consider a different compound.
Documented pIC50 of "COc1ccc(-c2ccc3c(N4CCOC[C@@H]4C)nc(N4CCOC[C@@H]4C)nc3n2)cc1CO" : 5.96
